test: Half life of compound was determined in plasma of mice at 5 mg/Kg; format: ADME, organism-based; conditions: mouse

[
  {
    "compound": "O=C1NC(=O)c2c1c1c3cc(F)ccc3sc1c1c2c2cc(F)ccc2n1C1OC(CO)C(O)C(O)C1O (stereo unspecified)",
    "half-life / h": 7.6
  }
]

* * *

Molecular target: DNA topoisomerase 1 (Homo sapiens) (UniProt P11387)
Sequence (whole entry): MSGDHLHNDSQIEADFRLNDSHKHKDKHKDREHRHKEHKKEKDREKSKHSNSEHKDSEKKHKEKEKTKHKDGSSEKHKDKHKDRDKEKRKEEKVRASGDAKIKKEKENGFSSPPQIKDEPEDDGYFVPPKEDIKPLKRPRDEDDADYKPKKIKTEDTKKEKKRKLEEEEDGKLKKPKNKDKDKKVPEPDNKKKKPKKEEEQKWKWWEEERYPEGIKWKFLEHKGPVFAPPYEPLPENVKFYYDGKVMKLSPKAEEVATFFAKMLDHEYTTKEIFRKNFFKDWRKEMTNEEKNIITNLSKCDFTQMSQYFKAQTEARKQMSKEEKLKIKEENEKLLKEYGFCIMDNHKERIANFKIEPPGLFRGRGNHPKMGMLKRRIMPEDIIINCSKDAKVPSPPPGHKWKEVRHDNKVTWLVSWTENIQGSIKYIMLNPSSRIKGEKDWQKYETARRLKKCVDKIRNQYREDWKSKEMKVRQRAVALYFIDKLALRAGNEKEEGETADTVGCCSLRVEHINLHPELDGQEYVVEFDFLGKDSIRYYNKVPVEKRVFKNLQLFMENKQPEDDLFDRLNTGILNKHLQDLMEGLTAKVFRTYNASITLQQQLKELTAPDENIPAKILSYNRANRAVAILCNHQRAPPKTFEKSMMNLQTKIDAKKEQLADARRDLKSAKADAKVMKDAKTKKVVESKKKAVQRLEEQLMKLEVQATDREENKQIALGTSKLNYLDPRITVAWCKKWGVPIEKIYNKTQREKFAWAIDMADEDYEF
Test: Ratio of effective concentration for inducing single strand breaks in the DNA substrate by topoisomerase I compared to camptothecin
Listed next: entries and their corresponding Ratio.

[
  {
    "molecule": "O=C1NC(=O)c2c1c1c3ccccc3[nH]c1c1c2c2cc(F)ccc2n1C1OC(CO)C(O)C(O)C1O (configuration not stated)",
    "measurement-target": "DNA topoisomerase 1 (Homo sapiens) (UniProt P11387)",
    "measurement-qualifier": "=",
    "Ratio": 6.6
  },
  {
    "molecule": "O=C1NC(=O)c2c1c1c3ccc(F)cc3[nH]c1c1c2c2ccc(F)cc2n1C1OC(CO)C(O)C(O)C1O (configuration not stated)",
    "measurement-target": "DNA topoisomerase 1 (Homo sapiens) (UniProt P11387)",
    "measurement-qualifier": "=",
    "Ratio": 2
  },
  {
    "molecule": "O=C1NC(=O)c2c1c1c3cc(F)ccc3sc1c1c2c2cc(F)ccc2n1C1OC(CO)C(O)C(O)C1O (configuration not stated)",
    "measurement-target": "DNA topoisomerase 1 (Homo sapiens) (UniProt P11387)",
    "measurement-qualifier": "=",
    "Ratio": 0.09
  },
  {
    "molecule": "O=C1NC(=O)c2c1c1c3cc(F)ccc3[nH]c1c1c2c2cc(F)ccc2n1C1OC(CO)C(O)C(O)C1O (configuration not stated)",
    "measurement-target": "DNA topoisomerase 1 (Homo sapiens) (UniProt P11387)",
    "measurement-qualifier": "=",
    "Ratio": 0.22
  },
  {
    "molecule": "O=C1NC(=O)c2c1c1c3ccccc3[nH]c1c1c2c2ccc(F)cc2n1C1OC(CO)C(O)C(O)C1O (configuration not stated)",
    "measurement-target": "DNA topoisomerase 1 (Homo sapiens) (UniProt P11387)",
    "measurement-qualifier": "=",
    "Ratio": 3.1
  },
  {
    "molecule": "O=C1NC(=O)c2c1c1c3cc(F)ccc3[nH]c1c1c2c2ccccc2n1C1OC(CO)C(O)C(O)C1O (configuration not stated)",
    "measurement-target": "DNA topoisomerase 1 (Homo sapiens) (UniProt P11387)",
    "measurement-qualifier": "=",
    "Ratio": 1.7
  },
  {
    "molecule": "NN1C(=O)c2c(c3c4cc(F)ccc4n(C4OC(CO)C(O)C(O)C4O)c3c3[nH]c4ccc(F)cc4c23)C1=O (configuration not stated)",
    "measurement-target": "DNA topoisomerase 1 (Homo sapiens) (UniProt P11387)",
    "measurement-qualifier": "=",
    "Ratio": 0.22
  },
  {
    "molecule": "O=C1NC(=O)c2c1c1c3ccccc3sc1c1c2c2cc(F)ccc2n1C1OC(CO)C(O)C(O)C1O (configuration not stated)",
    "measurement-target": "DNA topoisomerase 1 (Homo sapiens) (UniProt P11387)",
    "measurement-qualifier": "=",
    "Ratio": 2.2
  },
  {
    "molecule": "O=C1c2c(c3c4cc(F)ccc4n(C4OC(CO)C(O)C(O)C4O)c3c3[nH]c4ccc(F)cc4c23)C(=O)N1O (configuration not stated)",
    "measurement-target": "DNA topoisomerase 1 (Homo sapiens) (UniProt P11387)",
    "measurement-qualifier": "=",
    "Ratio": 0.08
  },
  {
    "molecule": "O=C1NC(=O)c2c1c1c3ccc(F)cc3[nH]c1c1c2c2ccccc2n1C1OC(CO)C(O)C(O)C1O (configuration not stated)",
    "measurement-target": "DNA topoisomerase 1 (Homo sapiens) (UniProt P11387)",
    "measurement-qualifier": ">",
    "Ratio": 200
  },
  {
    "molecule": "Cn1c2cc(F)c(F)cc2c2c3c(c4c5cc(F)c(F)cc5n(C5OC(CO)C(O)C(O)C5O)c4c21)C(=O)NC3=O (configuration not stated)",
    "measurement-target": "DNA topoisomerase 1 (Homo sapiens) (UniProt P11387)",
    "measurement-qualifier": ">",
    "Ratio": 600
  },
  {
    "molecule": "O=C1NC(=O)c2c1c1c3cccc(Cl)c3[nH]c1c1c2c2cccc(Cl)c2n1C1OC(CO)C(O)C(O)C1O (configuration not stated)",
    "measurement-target": "DNA topoisomerase 1 (Homo sapiens) (UniProt P11387)",
    "measurement-qualifier": ">",
    "Ratio": 500
  },
  {
    "molecule": "O=C1NC(=O)c2c1c1c3cc(F)ccc3oc1c1c2c2cc(F)ccc2n1C1OC(CO)C(O)C(O)C1O (configuration not stated)",
    "measurement-target": "DNA topoisomerase 1 (Homo sapiens) (UniProt P11387)",
    "measurement-qualifier": "=",
    "Ratio": 0.27
  },
  {
    "molecule": "O=C1NC(=O)c2c1c1c3ccccc3oc1c1c2c2cc(F)ccc2n1C1OC(CO)C(O)C(O)C1O (configuration not stated)",
    "measurement-target": "DNA topoisomerase 1 (Homo sapiens) (UniProt P11387)",
    "measurement-qualifier": "=",
    "Ratio": 1.5
  },
  {
    "molecule": "CN1C(=O)c2c(c3c4cc(F)ccc4n(C4OC(CO)C(O)C(O)C4O)c3c3sc4ccc(F)cc4c23)C1=O (configuration not stated)",
    "measurement-target": "DNA topoisomerase 1 (Homo sapiens) (UniProt P11387)",
    "measurement-qualifier": "=",
    "Ratio": 0.48
  },
  {
    "molecule": "O=C1NC(=O)c2c1c1c3cc(F)c(F)cc3[nH]c1c1c2c2cc(F)c(F)cc2n1C1OC(CO)C(O)C(O)C1O (configuration not stated)",
    "measurement-target": "DNA topoisomerase 1 (Homo sapiens) (UniProt P11387)",
    "measurement-qualifier": "=",
    "Ratio": 0.69
  },
  {
    "molecule": "CN1C(=O)c2c(c3c4cc(F)ccc4n(C4OC(CO)C(O)C(O)C4O)c3c3[nH]c4ccc(F)cc4c23)C1=O (configuration not stated)",
    "measurement-target": "DNA topoisomerase 1 (Homo sapiens) (UniProt P11387)",
    "measurement-qualifier": "=",
    "Ratio": 1
  }
]
